- target-desc: Solute carrier organic anion transporter family member 1A5 (Oatp1a5) (Rattus norvegicus, UniProt O88397)
- Sequence (O88397 whole entry): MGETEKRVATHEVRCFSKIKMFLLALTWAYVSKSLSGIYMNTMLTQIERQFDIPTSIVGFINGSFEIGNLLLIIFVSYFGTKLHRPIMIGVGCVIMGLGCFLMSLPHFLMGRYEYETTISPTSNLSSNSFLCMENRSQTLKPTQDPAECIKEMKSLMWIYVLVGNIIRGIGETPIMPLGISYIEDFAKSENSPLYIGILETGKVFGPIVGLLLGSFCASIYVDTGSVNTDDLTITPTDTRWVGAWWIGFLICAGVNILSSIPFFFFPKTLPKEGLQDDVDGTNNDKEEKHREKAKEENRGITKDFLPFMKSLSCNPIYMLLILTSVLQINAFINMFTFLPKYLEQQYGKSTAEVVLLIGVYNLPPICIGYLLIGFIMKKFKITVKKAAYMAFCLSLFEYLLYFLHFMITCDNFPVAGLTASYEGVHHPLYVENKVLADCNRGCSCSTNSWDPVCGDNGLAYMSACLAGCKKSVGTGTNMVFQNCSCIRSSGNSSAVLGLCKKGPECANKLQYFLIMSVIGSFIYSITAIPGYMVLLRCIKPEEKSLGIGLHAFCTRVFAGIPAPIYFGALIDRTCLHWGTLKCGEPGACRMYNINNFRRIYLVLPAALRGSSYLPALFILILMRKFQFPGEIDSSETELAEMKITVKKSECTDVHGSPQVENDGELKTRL
- assay-overview: TP_TRANSPORTER: uptake in Xenopus laevis oocytes
- Assay type: functional, cell-based, Oocyte
- test-parameters: Xenopus laevis oocytes
measured-metric: Km (µM)
Field format: number, assumed µM, no unit text.

## Input Bench note: what Km did "C[C@@H]1O[C@@H](O[C@H]2C[C@@H](O)[C@]3(CO)[C@H]4[C@H](O)C[C@]5(C)[C@@H](C6=CC(=O)OC6)CC[C@]5(O)[C@@H]4CC[C@]3(O)C2)[C@H](O)[C@H](O)[C@H]1O" show?
## Output 1570
